- Target: Torsin-1A (Homo sapiens) (UniProt O14656)
- Sequence (O14656 whole entry, looked up): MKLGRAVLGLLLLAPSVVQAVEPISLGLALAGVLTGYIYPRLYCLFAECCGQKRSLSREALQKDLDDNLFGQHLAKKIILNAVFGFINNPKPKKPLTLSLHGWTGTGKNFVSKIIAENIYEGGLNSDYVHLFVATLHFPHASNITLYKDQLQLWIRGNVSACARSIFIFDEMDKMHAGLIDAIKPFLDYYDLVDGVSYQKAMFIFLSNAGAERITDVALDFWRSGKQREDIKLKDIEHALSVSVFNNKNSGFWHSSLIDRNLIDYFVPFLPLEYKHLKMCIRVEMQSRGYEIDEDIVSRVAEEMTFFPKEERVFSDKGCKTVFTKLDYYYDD
- Protocol Summary: torsin A binders from cell lysate, primary screen, small-molecule microarray, wild-type, 635/667 nm (AID 1149)
- Condition Info: COS7 hTOR1A-WT lysate, 635 nm fluorescence, higher = more signal
# composite z-score per record follows
Endpoint Label: composite z-score

Molecule	Endpoint Label	Number
COC(=O)[C@@]1(Cc2ccc(F)cc2)[C@H]2c3cc(C(=O)N4CCCC4)n(CCN4CNCC4=O)c3C[C@H]2CN1C(=O)c1ccccc1	composite z-score	1.51
Cc1ccc(S[C@]2(C(=O)O)CC(=O)N(Cc3cc(C(F)(F)F)cc(C(F)(F)F)c3)[C@@H]2c2ccc(CO)cc2)cc1	composite z-score	-0.272
C=C(COC)/C(=C/C[C@H](OC(=O)c1ccncc1)c1ccccc1OCCO)c1cnc2ccccc2c1	composite z-score	1.57
CN(C)C(=O)[C@]1(CCS(=O)(=O)c2ccccc2)N=C(c2ccc(OCCCO)cc2)O[C@@H]1c1ccccc1N=[N+]=[N-]	composite z-score	1.42
Cc1cc(C)cc(N2C(=O)CSC2c2cccc([N+](=O)[O-])c2)c1 (configuration not stated)	composite z-score	0.337
C=CCC(OC(C)=O)[C@@H]1[C@@H](N(Cc2ccc(-c3cccc(C(F)(F)F)c3)o2)C(=O)c2ccc(-c3ccccc3)cc2)c2cc(OCCCO)ccc2N1C(=O)c1ccc2ccccc2n1 (some centres not stated)	composite z-score	-0.48
C=CCOC(=O)[C@H]1[C@@H]2C(=O)O[C@@H](c3ccccc3)[C@@H](c3ccccc3)N2[C@@H](c2ccc(OCCOC(=O)[C@@H]3C[C@@H]4C(=O)N[C@@H](CCCCN(C)C)C(=O)N4[C@@H]3c3ccc(O)cc3)cc2)[C@]12C(=O)Nc1ccccc12	composite z-score	0.756
